Entries and their measured selectivity ratio follow.
TEST: Selectivity index, ratio of IC50 for cytotoxicity against bovine MDBK cells to IC50 for Trypanocidal activity against Trypanosoma congolense

# CHEMICAL SMILES, RESULT QUALIFIER, selectivity ratio
measured = [
    ("COc1ccc(-c2cnc(-c3ccc(OC)c(OC)c3OC)o2)c(OC)c1OC", "=", 2.4),
    ("COc1ccccc1-c1nnc(-c2cccc(OC)c2OC)s1", ">", 80),
    ("COCOc1ccccc1-c1cnc(-c2cccc(OC)c2OC)o1", "=", 21),
    ("COc1cccc(-c2cnc(-c3cccc(OC)c3OC)o2)c1OC", "=", 3.4),
    ("CC(=O)Oc1ccc(OC(C)=O)c(-c2cnc(-c3ccccc3)o2)c1", "=", 2.4),
    ("COc1ccccc1-c1nnc(-c2cccc(OC)c2OC)o1", "=", 12),
]
